property: melting point

Task: Given the entry `CN(C)C(=O)c1nn(-c2ccc(Cl)cc2)c(=O)c2c(N)scc12` , report its measured melting point.
Output: 242 to 244 °C

Task: What melting point value was documented for this compound, N#CC(Cl)CC(Cl)(Cl)C(=O)Oc1ccccc1 (stereo unspecified) ?
Output: 51.5 to 52.5 °C

Task: State the recorded melting point for this entry: `CN1CCN(c2ccc([N+](=O)[O-])cc2C(F)(F)F)C1=O`
Output: 119 to 120 °C

Task: What does the record list as melting point for `O=c1c2cccnc2n(-c2cccc([N+](=O)[O-])c2)c(=O)n1CCO` ?
Output: 212 to 213 °C

Task: Need melting point of Clc1ccc(N2CCN(CCC3OCCc4cc(Br)ccc43)CC2)cc1 (stereo unspecified) , thanks.
Output: 94 to 96 °C

Task: Recorded melting point of CCOC(=O)C1=C(C)Nc2ccnc(OC(C)C)c2C1c1cccs1 (stereo unspecified) , please.
Output: 110 to 111 °C

Task: Which melting point is listed for `COc1ccc2cc(C(N)=O)ccc2c1` ?
Output: 224 to 226 °C

Task: What value of melting point has been recorded for this entry: `Cc1nc(-c2cccnc2)sc1-c1ccnc(Nc2cccc(CN)c2)n1`
Output: 211 to 213 °C

Task: Value lookup for melting point; key = `CCN(CC)c1cc2c(cc1C)Nc1c(cc(NC(C)=O)c3ncn(C)c13)O2`
Output: 217 to 218 °C

Task: Please look up its melting point: `Cc1ncc(CN2CCC(COCc3ccccc3)CC2)c(N)n1`
Output: 106 to 108 °C

Task: Name the reported melting point value associated with the compound CN(c1cccc2cc(C3=NCC(CN4CCS(=O)(=O)CC4)S3)[nH]c12)S(=O)(=O)c1cccs1 (stereo unspecified)
Output: 242 °C

Task: Dear colleague, I am looking for the recorded melting point of the following compound: `Cc1ccc(CCc2cc3c(s2)NC(=S)CN=C3c2ccccc2Cl)cc1`
Output: 190 to 191 °C

Task: Reported melting point for `Cc1ccnc2c1C(=O)c1c(C)cc(=O)[nH]c1C2=O` : what is it?
Output: 258 to 261 °C

Task: Any idea what melting point was measured for `Oc1cc2c(cc1-c1nc3cc(-c4ccccc4)ccc3o1)oc1ccccc12` ?
Output: 293 to 295 °C

Task: Which value of melting point has been reported for `CCOC(=O)Cc1nc2cc(OC)c(OC)cc2c(-c2ccc(OC)c(OC)c2)c1C(=O)OCC` in the records?
Output: 146 to 147 °C

Task: Value lookup for melting point; key = `O=C(NCCCCCC(=O)c1ncco1)c1cc2ccccc2[nH]1`
Output: 176 to 179 °C

Task: Look up melting point: `N#C/C(=C\c1ccc(O)c(O)c1)C(=O)NCCCCNC(=O)/C(C#N)=C/c1ccc(O)c(O)c1`
Output: 283 °C

Task: // query melting point value for entry NC(Cc1cc(CP(=O)(O)O)cc(-c2ccc(Cl)cc2)c1)C(=O)OCC=Cc1ccccc1 (stereo unspecified)
Output: 253 to 255 °C

Task: # lookup: melting point of `COc1ccc(-c2coc(-c3ccc(C(=O)O)cc3)n2)cc1`
Output: 286 to 287 °C

Task: I'd like to know its melting point. The compound in question is `O=c1ccn(Cc2ccccc2)c(=O)[nH]1`
Output: 168 to 170 °C

Task: Fill in the blank: the reported melting point of CS(=O)(=S)OCc1c(F)c(F)c(F)c(F)c1F (stereo unspecified) is ____.
Output: 64.2 to 64.7 °C

Task: Name the reported melting point value associated with the compound `COc1ccc(C=O)c2cc(C)oc12`
Output: 167 to 170 °C

Task: Query: melting point; subject: `CC(C)(C)c1cc(-c2nc3n(c2CO)CCS3)cc(C(C)(C)C)c1O`
Output: 227 to 229 °C

Task: Look at this compound and give its reported melting point. CCSC(c1ccc(Cl)cc1Cl)C(C(O)C(C)(C)CF)n1cncn1 (stereo unspecified)
Output: 182 °C

Task: Returns the measured melting point for the input compound. Input: CC(=O)SC(C(C)=O)c1ccccc1 (stereo unspecified)
Output: 31 to 32 °C

Task: melting point for `O=C(CCCCCN1CCN(c2cccc(C(F)(F)F)c2)CC1)N1Cc2ccc(C(=O)N3CCCCC3)cc2C1` ?
Output: 91 °C

Task: Which melting point reading was recorded for the compound `COC(=O)C=Cc1cc(Cl)ccc1C(=O)OC` ?
Output: 87 to 89 °C

Task: Item under review: `O=C(N[C@H]1CC[C@H](CCN2CCC(c3cccc4c3CCO4)CC2)CC1)c1ccc(Cl)cc1` . Reported melting point?
Output: 224 °C

Task: Requested field: melting point. Item: `CCN(CC)CCNC(=O)c1ccc(Nc2nccc(-c3cccnc3)n2)cc1`
Output: 148 to 150 °C

Task: Any idea what its melting point is? The compound is `OCc1ccc2cc(OCc3ccccc3)ccc2c1`
Output: 130 to 132 °C

Task: For the compound `CCCC(CCC)(CC(=O)O)CC(=O)O` , what melting point is on record?
Output: 107 °C

Task: Query (compound): `COc1nc(-c2ccccc2)n(Cc2ccc(-c3ccccc3S(N)(=O)=O)cc2)c1C=O` ; field requested: melting point
Output: 188 °C

Task: Would you mind telling me what melting point value was observed for O=C1OC(c2ccc(F)cc2)C(Cn2cncn2)(c2ccc(Cl)cc2Cl)O1 (stereo unspecified) ?
Output: 191 to 192 °C

Task: I would be grateful if you could share the reported melting point for `COC=C(C(=O)OC)c1ccccc1CC(=O)c1ccccc1` .
Output: 97 to 99 °C

Task: Request the reported melting point associated with `COCC(=O)Nc1c(C(=O)c2cccc(C)c2)[nH]c2ccc([N+](=O)[O-])cc12`
Output: 155 to 157 °C

Task: Would you mind telling me what melting point value was observed for CC(OS(C)(=O)=O)C(=O)O (single isomer, unassigned; (-)) ?
Output: 65 to 72 °C

Task: // melting point lookup, key: `CCOC(=O)C(=O)/C=C/c1ccc(OCc2nc(-c3ccccc3)oc2C)cc1`
Output: 110 to 111 °C

Task: Can you share its melting point? I mean this compound: `CCOC(=O)Cc1ccc(-c2cn3ccccc3n2)cc1`
Output: 92 to 93 °C

Task: Fill in the blank: the reported melting point of `CCCCc1c(C(=O)OCC)cc(OC)c2ccc(OC)cc12` is ____.
Output: 44 to 45 °C

Task: Look up melting point for this compound: `C#CC(C)(C)N=C(NC#N)SC`
Output: 128 to 130 °C

Task: What value of melting point has been reported for the following compound? `OC1(c2ccc(Cl)c(C(F)(F)F)c2)CCN(CCCc2nnc3n2CCCCC3)CC1`
Output: 151 °C

---

property: melting point

Task: State the recorded melting point for this entry: `CCOC(=O)N1CCCc2nc3cc(C)ccc3c(C)c2C1`
Output: 132 °C

Task: Name the recorded melting point for `OCc1cccc2cccnc12` .
Output: 74 to 75 °C

Task: # lookup: melting point of `CCOC(=O)n1nc(-c2cc(C(C)(C)C)c(O)c(C(C)(C)C)c2)c2cccnc21`
Output: 161 to 163 °C

Task: So what's the measured melting point for this one? `CN(C)c1ccc(-c2nc(Cl)c(C#N)n2Cc2ccccc2)cc1`
Output: 125 to 127 °C

Task: Given `CCOC(=O)C=Cc1ccc(OCc2nc(-c3ccccc3)oc2C)cc1` , state its recorded melting point.
Output: 145 to 146 °C

Task: I have this compound here, `O=[N+]([O-])c1cc(O)cc2cc(-c3ccc(O)cc3)oc12` , and I need its recorded melting point.
Output: 236 to 237 °C

Task: Recorded melting point of `CCOCc1nc2c(N)nc3cc(-c4cncc(CO)c4)ccc3c2n1CC(C)(C)O` , please.
Output: 188 to 190 °C

Task: Sample `CC(C)=C(C#N)C(=O)OC(COc1ccc(C(=O)c2ccccc2)c(O)c1)COc1ccc(C(=O)c2ccccc2)c(O)c1` — what was its melting point?
Output: 145 to 147 °C

Task: Record request: melting point value, item `Cc1nc2sc3cc(F)ccc3n2c1CO`
Output: 230 to 235 °C

Task: melting point for `Cc1cccc(C(=O)Nc2ccc(N3CCN(Cc4cccc(C#N)c4)CC3)cc2)c1-c1ccc(C(C)C)cc1` ?
Output: 137 °C

---

Would you mind telling me the reported melting point of each entry?

Task: Which melting point reading was recorded for the molecule `Oc1ccc(Cc2noc3cc(O)ccc23)cc1` ?
Output: 178 °C

Task: # melting point lookup, item `BrCc1noc2ccccc12`
Output: 60 to 62 °C

Task: So what does the record say about melting point for CC(C)(CCn1cnc(-c2ccccc2)c1)NCC(O)c1ccc(O)c(NS(C)(=O)=O)c1 (configuration not stated) ?
Output: 133 to 136 °C

Task: Form field: reported melting point of `CCSN(C)C(=O)Nc1ccc(OC)c(Cl)c1`
Output: 60 °C

Task: // returns reported melting point for input Cc1nc2cccnc2nc1S(=O)Cc1ccccn1 (configuration not stated)
Output: 120 to 125 °C

Task: Name the recorded melting point for `O=C1CC(c2cccnc2)=NN1c1ccccc1` .
Output: 102 to 103 °C

Task: Given O=C1[C@@H](CCCO)O[C@H](c2ccccc2)c2ccccc2N1Cc1ccccc1 (relative stereo) , state its recorded melting point.
Output: 59 to 62 °C

Task: Which value of melting point has been reported for `COc1nc(-c2ccccc2)c2c(n1)N(c1ccccc1)C(=O)NC2` in the records?
Output: 220 to 222 °C

Task: Tell me the measured melting point of `Cc1nc(O)cc(C(C)(C)C)n1` , please.
Output: 131 to 132 °C

Task: Reported melting point for `Cc1c(CCC(=O)O)c[nH]c1C=O` : what is it?
Output: 128 to 134 °C

Task: What value of melting point has been reported for the following molecule? `C[C@@H]1CC(=O)O[C@H](CCc2ccccc2)O1`
Output: 49.7 to 50.9 °C

Task: I would be grateful if you could share the reported melting point for `COc1cc(Br)nc2[nH]cc(C(C)=O)c12` .
Output: > 210 °C

Task: Could you tell me which melting point is on file for `CN[C@@H](C)[C@@H]1CCN(c2c(F)cc3c(=O)[nH]c(=O)n(C4CC4)c3c2C)C1` ?
Output: > 250 °C

Task: Report melting point for `CSc1ccc(C=CC(N)=O)cc1` please.
Output: 193 °C

Task: What melting point value was documented for this molecule, `COc1cc(COc2cc(CC#N)n(-c3ccccc3)n2)ccc1OCc1nc(-c2ccco2)oc1C` ?
Output: 141 to 142 °C

Task: Which melting point value is on record for `CS(=O)(=O)c1cccc(C(=O)Nc2cc(C(=O)NCc3ccccc3)ccn2)c1` ?
Output: 170 to 171 °C

Task: Look up melting point: `COc1cc(C(=O)c2cnc3ccccc3c2)ccc1OCc1ccccc1`
Output: 110 to 111 °C

Task: Any idea what its melting point is? The molecule is CC(CCCC(C)(C)O)C1CCC2C3=CC=C4CC(O)C5OC5C4(C)C3CCC21C (configuration not stated)
Output: 173 to 175 °C

Task: Quick check: melting point of `CS(=O)(=O)c1ccc(-c2[nH]c(Br)c(Cl)c2-c2ccc(F)cc2)cc1` ?
Output: 206 to 209 °C

Task: Report melting point for `CC(=O)Nc1ccccc1-c1nc(C)c(-c2cccnc2)[nH]1` please.
Output: 270 to 271 °C

Task: Would you kindly share the measured melting point for `COc1ccccc1-c1nc(C)c(-c2cccnc2)n1O` ?
Output: 105 to 120 °C

Task: Tell me the measured melting point of `O=C(O)c1cn(C2COC2)c2c(F)c(F)cc(F)c2c1=O` , please.
Output: > 300 °C
